assay: Cytotoxicity against human M8166 cells after 4 days by MTT assay; type: cell-based
Each entry below carries its reported CC50 at 96 h.

| structure.as.smiles | CC50 at 96 h |
| --- | --- |
| Cc1cn([C@H]2C[C@H](O)[C@@](C#N)(CO)S2)c(=O)[nH]c1=O | > 10 µM |
| CO[C@]1(CO)S[C@@H](n2cc(C)c(=O)[nH]c2=O)C[C@@H]1O | > 100 µM |
| Cc1cn([C@H]2C[C@H](O)[C@](CO)(N=[N+]=[N-])S2)c(=O)[nH]c1=O | > 10 µM |
| Cc1cn([C@H]2C[C@H](O)[C@](CO)(Sc3ccccc3)S2)c(=O)[nH]c1=O | > 100 µM |
| C#C[C@]1(CO)S[C@@H](n2cc(C)c(=O)[nH]c2=O)C[C@@H]1O | > 10 µM |

Here's the next entry for you.
Query: What does the record list as CC50 at 96 h for `C=CC[C@]1(CO)S[C@@H](n2cc(C)c(=O)[nH]c2=O)C[C@@H]1O` ?
Result: > 100 µM
